Would you mind telling me the reported fold change of affinity of each entry?
- system.tested: T1, Human CD137 ECD (human)
- T1 construct: entry includes C-terminal His-tag and biotin acceptor peptide; also called human CD137 extracellular domain; 4-1BB
- test.description: Biacore SPR, vs parent H183/L072
Answer in fold, number only, no unit symbol.

Input line: Item under review: H183/L072 VL P56S (antibody, name in Kabat numbering, V domains shown, Dual-Ig) VH: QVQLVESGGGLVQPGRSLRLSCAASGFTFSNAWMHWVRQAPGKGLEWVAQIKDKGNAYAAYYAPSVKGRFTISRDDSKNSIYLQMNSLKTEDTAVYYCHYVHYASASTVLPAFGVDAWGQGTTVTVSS VL: DIVMTQSPLSLPVTPGEPASISCQASQELVHMNRNTYLHWYQQKPGQAPRLLIYKVSNRFSGVPDRFSGSGSGTDFTLKISRVEAEDVGVYYCAQGTSVPFTFGQGTKLEIK . Reported fold change of affinity?
Output line: 0.1

Input line: Item under review: H183/L072 VL R29G (antibody, name in Kabat numbering, V domains shown, Dual-Ig) VH: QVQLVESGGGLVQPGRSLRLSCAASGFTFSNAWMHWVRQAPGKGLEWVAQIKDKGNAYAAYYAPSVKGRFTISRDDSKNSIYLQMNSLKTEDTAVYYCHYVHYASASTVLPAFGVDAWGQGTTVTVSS VL: DIVMTQSPLSLPVTPGEPASISCQASQELVHMNGNTYLHWYQQKPGQAPRLLIYKVSNRFPGVPDRFSGSGSGTDFTLKISRVEAEDVGVYYCAQGTSVPFTFGQGTKLEIK . Reported fold change of affinity?
Output line: 1.1

Input line: Item under review: H183/L072 VL Q90T (antibody, name in Kabat numbering, V domains shown, Dual-Ig) VH: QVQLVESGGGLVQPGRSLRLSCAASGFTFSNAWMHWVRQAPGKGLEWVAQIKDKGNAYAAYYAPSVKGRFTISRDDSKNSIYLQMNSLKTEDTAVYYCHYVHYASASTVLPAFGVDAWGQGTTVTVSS VL: DIVMTQSPLSLPVTPGEPASISCQASQELVHMNRNTYLHWYQQKPGQAPRLLIYKVSNRFPGVPDRFSGSGSGTDFTLKISRVEAEDVGVYYCATGTSVPFTFGQGTKLEIK . Reported fold change of affinity?
Output line: 0
